assay: qHTS Assay for Inhibitors of Hepatitis C Virus (HCV); details: Huh7.5.1 HCVcc-Cre infection, luciferase reporter, 44 h; series mostly up to 41.8 µM
Hit rate of the full screen: of about 340,000 compounds, about 12,000 (3.5%) were called active. Another 18% or so got no clear call; they are omitted. Calls follow the shape of the dose curve; as a rule, active = well fitted inhibition curve with a large enough effect; inconclusive = small, poorly fitted or top-dose-only effect, or another doubt; inactive = no such curve, though single readings can be large or run the other way. The sample as a whole holds a higher share of actives than the screen did.
Outcomes: true (active), false (inactive)

> print(dat)
                             smiles.notation  assigned.label
 1  COc1ccc(S(=O)(=O)N2CCN(CC(=O)N3CCOCC3)CC2)cc1OC           false
 2  O=C(N/N=C/c1ccc([N+](=O)[O-])o1)c1cn(-c2ccccc2)nc1-c1ccc(F)cc1           false
 3  CN(CC(=O)Nc1ccc(OC(F)(F)F)cc1)C(=O)C1CCC1           false
 4  Cn1nc(C(=O)OCC(=O)N(Cc2ccccc2)C(C)(C)C)c2ccccc2c1=O           false
 5                COc1ccc(N=C2C=CC(=O)O2)cc1           false
 6  CC1CCN(c2nc3c(c(=O)[nH]c(=O)n3C)n2CCCc2ccccc2)CC1           false
 7  Cn1c(=O)[nH]c(=O)c2c1nc(N1CCN(CCO)CC1)n2CCSc1nc2ccccc2s1           false
 8      C/[N+]([O-])=C\c1ccc([N+](=O)[O-])o1           false
 9           Fc1ccccc1-c1cc2cc3c(cc2cn1)OCO3           false
10  Cn1c(=O)[nH]c(=O)c2c1nc(N1CCN(C(c3ccccc3)c3ccccc3)CC1)n2CCO            true

----------
test: qHTS Assay for Inhibitors of Hepatitis C Virus (HCV); conditions: Huh7.5.1 HCVcc-Cre infection, luciferase reporter, 44 h; series mostly up to 41.8 µM
In all, about 340,000 compounds went through this assay and about 12,000 (3.5%) were called active. About 18% were inconclusive and are not listed. Calls come from the whole dose curve; as a rule, active = well fitted inhibition curve with a large enough effect; inconclusive = small, poorly fitted or top-dose-only effect, or another doubt; inactive = no such curve, though single readings can be large or run the other way. Many of the other results were omitted from the sample, so actives are more common in it than they were.
Outcome codes: y = active, n = inactive

> print(dat)
                                    molecule  assigned.label
 1  O=C(Nc1ccc2ccccc2c1[N+](=O)[O-])c1ccccc1               n
 2     O=C(CN1CCOCC1)Nc1cccc([N+](=O)[O-])c1               n
 3  O=C(OCC(=O)N1CCN(C(=O)c2ccco2)CC1)c1c(Cl)cccc1Cl               n
 4  O=C(c1ccc(Cl)cc1)c1ccc(OCC(O)CN2CCCCC2)cc1 (stereo unspecified)               y
 5  CC(=O)Oc1cc2c(C(=O)NCCN3CCOCC3)c(C)oc2c2ccccc12               y
 6              Cc1ccc(C(=O)NCCN2CCOCC2)cc1C               n
 7                   CCCNc1ncnc2sc(C)c(C)c12               y
 8  CN(Cc1ccccc1)C(=O)COC(=O)/C=C/c1ccc2c(c1)OCO2               n
 9  COc1ccc(S(=O)(=O)N2CCN(CC(=O)NCC3(N4CCOCC4)CCCCC3)CC2)cc1               n
10            COc1ccc(C(=NN)c2ccc(OC)cc2)cc1               n
11  CC(=O)Nc1ccc(OCC(O)CN2CCN(c3ccccc3Cl)CC2)cc1 (stereo unspecified)               n

Sourced from PubChem BioAssay AID651820
